assay: AUC (0 to infinity) in healthy human at […], po administered as single dose measured after 72 hrs by HPLC method; assay type: ADME, organism-based; set-up: time infinity, route oral; conditions: plasma
quantity.measured: AUC(0-inf) (ng·h/mL)
Answers are plain numbers, in ng·h/mL.

QUERY: Can you look up the measured AUC(0-inf) of "C[C@@H]([C@H](N)C(=O)N[C@H](C(=O)O)[C@H]1O[C@@H](n2ccc(=O)[nH]c2=O)[C@H](O)[C@@H]1O)[C@H](O)c1ccc(O)cn1" for me?
RESULT: 11600

---

experiment: Terminal half life in healthy human at 2000 mg, po administered as single dose measured after 72 hrs by HPLC method; details: in vivo, read-out: beta t1/2 (converted)
quantity.measured: half-life (h)
Give bare numbers, in h.

QUERY: Report half-life for "C[C@@H]([C@H](N)C(=O)N[C@H](C(=O)O)[C@H]1O[C@@H](n2ccc(=O)[nH]c2=O)[C@H](O)[C@@H]1O)[C@H](O)c1ccc(O)cn1" please.
RESULT: 2.09
